What follows is a record of Kdiss for D(2) dopamine receptor (Homo sapiens, UniProt P14416).
I only need the number, in s⁻¹, no unit after it.

O=C(CCCN1CCC(c2ccccc2)CC1)c1ccc(F)cc1    0.0118

Next compound, please.
Entry OC1(c2ccc(Cl)cc2)CCN(CCC#Cc2ccc(F)cc2)CC1 under D(2) dopamine receptor (Homo sapiens, UniProt P14416) had Kdiss of 0.0183

---

target: D(2) dopamine receptor (Homo sapiens, UniProt P14416)
Sequence (P14416 whole entry): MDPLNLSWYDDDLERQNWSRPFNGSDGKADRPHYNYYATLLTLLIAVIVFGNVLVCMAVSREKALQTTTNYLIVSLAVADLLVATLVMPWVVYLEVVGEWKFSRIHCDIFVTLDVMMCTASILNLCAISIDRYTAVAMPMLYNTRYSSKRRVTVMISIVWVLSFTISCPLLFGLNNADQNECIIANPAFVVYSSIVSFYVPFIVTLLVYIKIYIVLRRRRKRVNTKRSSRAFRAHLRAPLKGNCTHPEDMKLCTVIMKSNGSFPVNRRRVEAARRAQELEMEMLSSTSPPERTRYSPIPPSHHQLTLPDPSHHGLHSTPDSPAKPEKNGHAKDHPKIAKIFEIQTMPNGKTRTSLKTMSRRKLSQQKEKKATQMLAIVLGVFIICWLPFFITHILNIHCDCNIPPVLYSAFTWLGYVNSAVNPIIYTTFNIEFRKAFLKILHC
Recorded Metric: T1/2 (s)
I only need the number, in s, no unit after it.

Examples with answers:
O=C(CCCN1CCC2(c3ccc(Cl)cc3)CC2C1)c1ccc(F)cc1 (stereo unspecified)    141
O=C(CCCN1CCC(c2ccc(Cl)cc2)CC1)c1ccc(F)cc1    51.6

Entry O=C(CCCN1CCC(O)(c2ccc(Cl)cc2)CC1)c1cc(F)cc(F)c1 under D(2) dopamine receptor (Homo sapiens, UniProt P14416) had T1/2 of 47.4

Entry O=C(CCCN1CC=C(c2ccc(Cl)cc2)CC1)c1ccc(F)cc1 under D(2) dopamine receptor (Homo sapiens, UniProt P14416) had T1/2 of 65.4

Entry OC1(c2ccc(Cl)cc2)CCN(CC[C@H]2C[C@@H]2c2ccc(F)cc2)CC1 (racemic) under D(2) dopamine receptor (Homo sapiens, UniProt P14416) had T1/2 of 49.2

---

Measured Kdiss values are reported for all entries that follow.
biological target: UniProt P14416
I only need the number, in s⁻¹, no unit after it.

Examples with answers:
OC1(c2ccc(Cl)cc2)CCN(CCCC#Cc2ccc(F)cc2)CC1    0.0192
O=C(CCCN1CCC(O)(c2ccc(Cl)cc2)CC1)c1ccc(Cl)cc1    0.0117
O=C(CCCN1CCC(O)(c2cc(Cl)ccc2Cl)CC1)c1ccc(F)cc1    0.00933

Entry O=C(CCCN1CCC(O)(c2ccc(Cl)cc2)CC1)c1ccc(F)c(F)c1 under UniProt P14416 had Kdiss of 0.0172

Entry CN(C)c1ccc(C2(O)CCN(CCCC(=O)c3ccc(F)cc3)CC2)cc1 under UniProt P14416 had Kdiss of 0.0208

Entry OC1(c2ccc(Cl)cc2)CCN(CCCOc2ccc(F)cc2)CC1 under UniProt P14416 had Kdiss of 0.0152

Entry O=C(CCCN1[C@@H]2CC[C@H]1CC(O)(c1ccc(Cl)cc1)C2)c1ccc(F)cc1 (some centres not stated) under UniProt P14416 had Kdiss of 0.00317

Entry OC1(c2ccc(Cl)cc2)CCN(CCCCCc2ccc(F)cc2)CC1 under UniProt P14416 had Kdiss of 0.0203

Entry O=C(CCCN1CCC2(c3ccc(Cl)cc3)CC2C1)c1ccc(F)cc1 (configuration not stated) under UniProt P14416 had Kdiss of 0.005

Entry O=C(CCCN1CCC(O)(c2cccc(Cl)c2Cl)CC1)c1ccc(F)cc1 under UniProt P14416 had Kdiss of 0.005

Entry COC1(c2ccc(Cl)cc2)CCN(CCCC(=O)c2ccc(F)cc2)CC1 under UniProt P14416 had Kdiss of 0.0113

Entry O=C(CCCN1CCC(O)(c2cc(Cl)cc(Cl)c2)CC1)c1ccc(F)cc1 under UniProt P14416 had Kdiss of 0.00717

Entry OC(CCCN1CCC(O)(c2ccc(Cl)cc2)CC1)c1ccc(F)cc1 (configuration not stated) under UniProt P14416 had Kdiss of 0.0095

Entry OC1(c2ccc(Cl)cc2)CCN(CCCSc2ccc(F)cc2)CC1 under UniProt P14416 had Kdiss of 0.0165

Entry O=C(CCCN1CCC(c2ccc(Cl)cc2)CC1)c1ccc(F)cc1 under UniProt P14416 had Kdiss of 0.014

Entry O=C(CCCN1CCC(O)(c2ccc(Cl)cc2)CC1)c1ccccc1Cl under UniProt P14416 had Kdiss of 0.0185

Entry O=C(CCCN1CCC(O)(c2ccc(C(F)(F)F)cc2)CC1)c1ccc(F)cc1 under UniProt P14416 had Kdiss of 0.0103

Entry O=C(CCCN1CCC(O)(c2ccc(Cl)cc2)CC1)c1ccc(F)cc1F under UniProt P14416 had Kdiss of 0.0227

Entry O=C(CCCN1CCC(O)(c2ccc(F)cc2)CC1)c1ccc(Cl)cc1 under UniProt P14416 had Kdiss of 0.0128
